system: T1, Rat RGMa (rat) (UniProt D4A188)
T1 sequence: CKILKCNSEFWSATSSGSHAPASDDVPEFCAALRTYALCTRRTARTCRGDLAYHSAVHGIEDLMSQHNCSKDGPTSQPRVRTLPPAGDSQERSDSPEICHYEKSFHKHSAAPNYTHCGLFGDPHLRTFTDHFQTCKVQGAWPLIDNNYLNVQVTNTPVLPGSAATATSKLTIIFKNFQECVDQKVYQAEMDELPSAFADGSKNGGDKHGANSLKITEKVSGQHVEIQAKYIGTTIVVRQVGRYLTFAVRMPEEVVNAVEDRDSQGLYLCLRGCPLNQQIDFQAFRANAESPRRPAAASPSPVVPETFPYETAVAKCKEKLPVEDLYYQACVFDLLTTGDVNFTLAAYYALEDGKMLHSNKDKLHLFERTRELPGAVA
measurementNotes: BIAcore; Ab captured via anti-hIgG Fc on CM5 chip, antigen injected; 1:1 Langmuir fit
metricName: koff (s⁻¹)
The answer is to be given in s⁻¹; state only the numeric part.

Name the recorded koff for RGMA-h5F9pJP302/pJP303 hIgG1/K mut (antibody, V domains shown, Tested as IgG; also called h5F9.AM11; H5F9AM.11) VH: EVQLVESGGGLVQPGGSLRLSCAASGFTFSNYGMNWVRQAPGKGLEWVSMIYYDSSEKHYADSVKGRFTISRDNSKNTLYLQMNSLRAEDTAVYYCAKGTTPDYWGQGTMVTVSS VL: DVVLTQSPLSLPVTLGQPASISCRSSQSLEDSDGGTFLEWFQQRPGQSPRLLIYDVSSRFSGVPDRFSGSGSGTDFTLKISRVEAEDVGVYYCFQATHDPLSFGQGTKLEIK .
5.2e-05

Give its koff value. Item: humanized antibody 5F9.23 (antibody, V domains shown, also called h5F9.23; H5F9.23) VH: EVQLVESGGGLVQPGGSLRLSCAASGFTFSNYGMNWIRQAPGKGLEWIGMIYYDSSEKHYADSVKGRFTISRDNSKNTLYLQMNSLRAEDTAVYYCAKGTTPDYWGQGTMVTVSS VL: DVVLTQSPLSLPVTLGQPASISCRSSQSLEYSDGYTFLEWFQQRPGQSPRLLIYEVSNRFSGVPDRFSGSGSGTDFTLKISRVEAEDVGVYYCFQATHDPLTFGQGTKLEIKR
0.0017
